system: SF-539; assay: NCI tumour cell line growth inhibition, 48 h
The source made the active and inactive calls. Rule as the data show it: active = GI50 up to about 1.1 µM and inactive = higher.
Consider the following compounds and their measured GI50 readings.

Use the examples below as a reference point.
Nc1cc2c3c(cccc3c1)NC2=O    80.7 µM (inactive)
CCOP(=S)(OCC)Oc1ccc2c(c1)OC(=O)C1(Cl)C2(C)C2(Cl)C(=O)Oc3cc(OP(=S)(OCC)OCC)ccc3C12C (centres undefined)    11.1 µM (inactive)
O=Cc1cn(CCCCCn2cc(C=O)c3ccccc32)c2ccccc12    > 100 µM (inactive)

Item under review: COc1ccc2cc3[n+](cc2c1OC)CCc1cc2c(cc1-3)OCO2 . Reported GI50? 52.2 µM (inactive)

Item under review: Nc1nc(N)c(-c2cccc(C(F)(F)F)c2)c(Cc2cccc(C(F)(F)F)c2)n1 . Reported GI50? 4.41 µM (inactive)

Item under review: O=C(/C=C/c1ccc2c(c1)OCO2)CC(=O)/C=C/c1ccc2c(c1)OCO2 . Reported GI50? 76.7 µM (inactive)

Item under review: N#Cc1c(-c2ccccc2)nc(-c2ccccc2)sc1=S . Reported GI50? > 100 µM (inactive)

Item under review: CO/C(=N\N=C\c1cccc(C(F)(F)F)c1)c1ccncc1 . Reported GI50? 4.67 µM (inactive)

Item under review: Nc1ccc2c(c1)C(=O)c1ccccc1-2 . Reported GI50? > 100 µM (inactive)

Item under review: O=C1C([P+](c2ccccc2)(c2ccccc2)c2ccccc2)=C([O-])C(=Cc2ccc(Cl)c(Cl)c2)C([O-])=C1[P+](c1ccccc1)(c1ccccc1)c1ccccc1 . Reported GI50? 2.55 µM (inactive)

Item under review: O=C(N/N=C(COc1ccc(Cl)cc1)\N=C\c1ccncc1)c1ccncc1 . Reported GI50? > 100 µM (inactive)

Item under review: CCCCC(=O)c1ccc2ccccc2c1O . Reported GI50? > 100 µM (inactive)

Item under review: Cc1ccc(Cc2nnc(S)[nH]2)cc1 . Reported GI50? > 100 µM (inactive)
